Target: T1, GFP-9S library array, motif 4 ND N98G;D124G (synthetic construct, N98G;D124G)
T1 chain: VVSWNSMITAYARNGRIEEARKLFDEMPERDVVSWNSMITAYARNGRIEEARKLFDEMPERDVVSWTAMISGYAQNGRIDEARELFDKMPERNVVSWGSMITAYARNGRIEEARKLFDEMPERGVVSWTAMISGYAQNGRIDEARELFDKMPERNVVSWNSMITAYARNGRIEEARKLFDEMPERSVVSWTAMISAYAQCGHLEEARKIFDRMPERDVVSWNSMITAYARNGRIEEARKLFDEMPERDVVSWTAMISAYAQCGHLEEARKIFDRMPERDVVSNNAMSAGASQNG
Test: high-throughput RNA pulldown from lysate on Ni-NTA beads; HRP: 50 mM Tris pH 8, 150 mM NaCl, 1 mM beta-mercaptoethanol, 50 ug/ml BSA, 3 ug/ml yeast RNA, 0.5% heparin; ITC and FP: Tris pH 8, 200 mM KCl, 5% glycerol; MST: 50 mM Tris pH 8, 200 mM NaCl, 1 mM DTT, BSA, heparin, 0.05% Tween 20
Settings: tags: N-terminal His-eGFP; label: 5' IRDye 800CW
assay metric: pKd
Field pKd (float): negative decimal logarithm of the concentration in molar.

INSERT INTO assay_data (binder, assay_metric, recorded_measurement) VALUES
  ('AUUAUACGUGA (ssRNA) [IR-rpoA-U]', 'pKd', 7.02);

Then there is this binder:
Requested read-out: pKd. Entry: AUUAAACGUGA (ssRNA) [IR-rpoA-A]
7.30

Just for reference, paper PMC8809517 is where these values come from.
